// provenance: paper PMC9253517

- Target of assay: SARS-CoV-2 Wuhan-Hu-1 RBD (SARS-CoV-2, Wuhan-Hu-1 (GenBank …, UniProt P0DTC2))
- Assay overview: cell-based or functional assay
Some binders, each annotated with its measured neutralisation IC50, Wuhan-Hu-1 pseudovirus.
Measure name: neutralisation IC50, Wuhan-Hu-1 pseudovirus (µg/mL)

Binder: JR211 (antibody, V domains shown) VH: QVQLQESGPGLVKPSGTLSLTCAVSGGSISSSHWWNWVRQPPGKGLEWIGEIYHSGSTNYSPSLKSRVTISVDKSKNQFSLKLSSVTAADTAVYYCAKSMRAGPNDGFDYWGQGTLVTVSS VL: QSALTQPASVSGSPGQSITISCTGTSSDVGGYNYVSWYQQHPGKAPKLMIYDVSNRPSGVSNRFSGSKSGNTASLTISGLQAEDEADYYCSSYTSSSTVVFGGGTKLTVL
Unit of measurement: µg/mL
Bound operator: >
Value reported: 1
--
Binder: JR317 (antibody, V domains shown) VH: QVQLVESGGGVVQPGKSLRLSCAASGFTFSSYGMHWVRQAPGKGLEWVAVIWYDGSNKYYADSVKGRFTISRDNSKSTLYVQMNSLRAEDTAVYYCARVRTIFRPLDYMDVWGKGTTVTVSS VL: SYELTQPPSVSVAPGQTARITCGGNNIGSKSVHWYQQKPGQAPVLVVYDDSARPSGIPERFSGSNSGNAATLTISRVEAGDEADYYCQVWDRDYSSDHLWVFGGGTKLTVL
Unit of measurement: µg/mL
Bound operator: =
Value reported: 0.0344
--
Binder: JR174 (antibody, V domains shown) VH: QVQLVQSGAEVKKPGSSVKVSCKASGGTFSSYAISWVRQAPGQGLEWMGGIIPIFGTAHYAQKFQGRVTITADESTSTAYMELSSLRSEDTAVYFCARDLGGIQLYLLAYWGQGTLVTVSS VL: EIVLTQSPVTLSLSPGERATLSCRASQSVSSTYLAWYQQKPGQAPRLLIYGASSRATGIPDRFSGSGSGTDFTLTISRLEPEDFAVYYCQQYVGSPGTFGQGTKVEIK
Unit of measurement: µg/mL
Bound operator: =
Value reported: 0.0798
